Test system: AR mRNA
Assay: Dose-dependent antisense inhibition of human AR in HuVEC cells (electroporation, qRT-PCR RTS3559, IC50)
Format: cell-based
Details: Table 32; 750.0 nM, HuVEC, electroporation, approximately 16 hours
Oligonucleotides are written 5' to 3', each unit as a sugar letter and its base; * is a phosphorothioate linkage, no mark a phosphodiester; rarer units and linkages stand in square brackets, end groups in braces. Plain capitals give the bases only. k = constrained ethyl (cEt); [5mC] = 5-methylcytosine; d = 2'-deoxy (DNA)
This section presents substances with their documented percent inhibition of AR, 750.0 nM values.
MEASURED PROPERTY: percent inhibition of AR, 750.0 nM (%)

{"SUBSTANCE": "549458 (kG*kT*kT*dG*dA*dT*dT*dT*dA*dA*dT*dG*dG*kT*kT*kG) [compound 549458]", "MEASURED PROPERTY": "percent inhibition of AR, 750.0 nM", "RECORDED NUMBER": 89}
{"SUBSTANCE": "549372 (kA*kA*kG*dT*dT*dG*dT*dA*dG*dT*dA*dG*dT*k[5mC]*kG*k[5mC]) [compound 549372]", "MEASURED PROPERTY": "percent inhibition of AR, 750.0 nM", "RECORDED NUMBER": 70}
{"SUBSTANCE": "583787 (antisense kG*kG*kT*dG*d[5mC]*dT*dG*dG*d[5mC]*d[5mC]*dT*d[5mC]*dG*k[5mC]*kT*k[5mC]) [compound 583787]", "MEASURED PROPERTY": "percent inhibition of AR, 750.0 nM", "RECORDED NUMBER": 66}
{"SUBSTANCE": "583802 (antisense k[5mC]*kT*k[5mC]*dG*d[5mC]*dT*d[5mC]*dT*d[5mC]*d[5mC]*d[5mC]*dG*d[5mC]*kT*kG*k[5mC]) [compound 583802]", "MEASURED PROPERTY": "percent inhibition of AR, 750.0 nM", "RECORDED NUMBER": 47}
{"SUBSTANCE": "583865 (kT*kT*k[5mC]*dA*dG*dT*dG*d[5mC]*dT*d[5mC]*dT*dT*dG*k[5mC]*k[5mC]*kT; antisense) [compound 583865]", "MEASURED PROPERTY": "percent inhibition of AR, 750.0 nM", "RECORDED NUMBER": 68}
{"SUBSTANCE": "583856 (kA*kA*k[5mC]*d[5mC]*dT*dT*dT*dG*d[5mC]*dA*dT*dT*d[5mC]*kG*kG*k[5mC]; antisense) [compound 583856]", "MEASURED PROPERTY": "percent inhibition of AR, 750.0 nM", "RECORDED NUMBER": 74}

====

Settings: cynomolgus monkey, in vivo, sc, 40 mg/kg
Mesenteric lymph nodes weight less than 3 g is MET; Mesenteric lymph nodes weight greater than or equal to 3 g is NOT MET.

{"SUBSTANCE": "ISIS 583918: antisense compound targeted to human AR (AGTCGCGACTCTGGTA; 3-10-3 (S)-cEt gapmer, further chemistry not given here)", "GROUP": "NOT MET"}
{"SUBSTANCE": "TTGATTTAATGGTTGC [ISIS 560131] (MOE and (S)-cEt gapmer chemistry, further chemistry not given here)", "GROUP": "MET"}
{"SUBSTANCE": "TTGATTTAATGGTTGC [ISIS 579671] (cEt/MOE gapmer chemistry, further chemistry not given here)", "GROUP": "MET"}
{"SUBSTANCE": "ISIS 584149: antisense compound targeted to human AR (GTCAATATCAAAGCAC; 3-10-3 (S)-cEt gapmer, further chemistry not given here)", "GROUP": "MET"}
{"SUBSTANCE": "ISIS 584163: antisense compound targeted to human AR (GAACATTATTAGGCTA; 3-10-3 (S)-cEt gapmer, further chemistry not given here)", "GROUP": "NOT MET"}
{"SUBSTANCE": "TGATTTAATGGTTGCA [ISIS 569221] (cEt/MOE gapmer chemistry, further chemistry not given here)", "GROUP": "NOT MET"}
